These measurements were taken from ChEMBL document CHEMBL4393654.

The following compounds are listed with their measured IC50 values.
- targetEntity: Sodium channel protein type 5 subunit alpha (Homo sapiens)
- Sequence (Q14524 whole entry): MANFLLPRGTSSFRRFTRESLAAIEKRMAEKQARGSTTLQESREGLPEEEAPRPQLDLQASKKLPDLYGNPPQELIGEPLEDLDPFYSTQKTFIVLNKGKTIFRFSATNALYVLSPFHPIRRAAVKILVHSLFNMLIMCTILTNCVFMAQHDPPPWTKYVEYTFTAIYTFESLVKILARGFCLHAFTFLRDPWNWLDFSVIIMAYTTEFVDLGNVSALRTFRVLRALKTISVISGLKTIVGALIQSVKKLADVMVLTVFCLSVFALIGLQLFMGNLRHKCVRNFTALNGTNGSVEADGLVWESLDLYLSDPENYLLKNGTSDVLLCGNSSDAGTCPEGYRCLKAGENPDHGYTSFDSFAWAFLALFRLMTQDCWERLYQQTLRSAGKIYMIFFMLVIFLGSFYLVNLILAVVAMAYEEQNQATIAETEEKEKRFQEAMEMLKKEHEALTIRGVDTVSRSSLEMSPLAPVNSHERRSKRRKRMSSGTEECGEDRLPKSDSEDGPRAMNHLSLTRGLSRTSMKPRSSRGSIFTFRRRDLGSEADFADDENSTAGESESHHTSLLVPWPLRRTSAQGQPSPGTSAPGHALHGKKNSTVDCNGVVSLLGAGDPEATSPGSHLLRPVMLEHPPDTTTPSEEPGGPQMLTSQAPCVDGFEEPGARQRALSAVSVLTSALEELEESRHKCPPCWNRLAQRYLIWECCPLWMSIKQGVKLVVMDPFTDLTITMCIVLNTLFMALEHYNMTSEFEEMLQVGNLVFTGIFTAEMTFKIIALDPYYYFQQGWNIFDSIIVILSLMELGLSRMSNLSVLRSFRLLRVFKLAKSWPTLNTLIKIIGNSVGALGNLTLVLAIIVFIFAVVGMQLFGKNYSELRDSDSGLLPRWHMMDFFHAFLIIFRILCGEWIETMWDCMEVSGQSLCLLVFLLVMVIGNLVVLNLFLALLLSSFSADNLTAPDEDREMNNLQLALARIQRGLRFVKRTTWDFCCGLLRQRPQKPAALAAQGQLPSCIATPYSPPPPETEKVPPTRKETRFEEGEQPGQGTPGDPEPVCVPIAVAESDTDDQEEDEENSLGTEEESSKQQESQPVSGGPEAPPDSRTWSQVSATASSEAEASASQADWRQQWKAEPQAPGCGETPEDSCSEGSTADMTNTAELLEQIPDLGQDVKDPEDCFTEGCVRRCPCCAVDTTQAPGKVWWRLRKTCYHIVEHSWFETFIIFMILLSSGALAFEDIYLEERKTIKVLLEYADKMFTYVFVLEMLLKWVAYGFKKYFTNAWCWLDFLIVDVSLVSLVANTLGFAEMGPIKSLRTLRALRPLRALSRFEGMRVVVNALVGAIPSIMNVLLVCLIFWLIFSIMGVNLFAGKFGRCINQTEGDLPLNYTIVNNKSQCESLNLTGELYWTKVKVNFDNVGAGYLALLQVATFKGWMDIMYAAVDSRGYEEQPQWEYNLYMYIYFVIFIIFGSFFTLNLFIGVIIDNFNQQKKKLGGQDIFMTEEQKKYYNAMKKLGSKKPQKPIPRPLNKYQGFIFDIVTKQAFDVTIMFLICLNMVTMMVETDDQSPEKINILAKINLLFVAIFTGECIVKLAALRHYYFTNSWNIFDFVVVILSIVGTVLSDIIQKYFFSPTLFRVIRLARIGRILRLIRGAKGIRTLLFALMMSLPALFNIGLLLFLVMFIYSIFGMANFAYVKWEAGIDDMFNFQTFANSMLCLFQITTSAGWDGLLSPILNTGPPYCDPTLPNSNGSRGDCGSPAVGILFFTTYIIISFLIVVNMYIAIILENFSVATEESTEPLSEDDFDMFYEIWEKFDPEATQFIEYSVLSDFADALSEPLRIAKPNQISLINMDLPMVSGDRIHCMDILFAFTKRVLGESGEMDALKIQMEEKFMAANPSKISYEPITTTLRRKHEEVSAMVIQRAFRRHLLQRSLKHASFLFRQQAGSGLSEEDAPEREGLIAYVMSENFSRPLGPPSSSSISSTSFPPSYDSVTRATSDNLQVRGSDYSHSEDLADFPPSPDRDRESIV
- assaySummary: Inhibition of human NaV1.5 by Ion-work electrophysiology assay

[[record]]
smilesrepresentation = "Cc1cc(-c2ccc(C(=O)[C@@H]3CCCC[C@H]3C(=O)Nc3cnn(C)c3C(=O)NOC(C)(C)C)cc2)[nH]n1"
assayvalue = "> 33 µM"

[[record]]
smilesrepresentation = "Cc1cc(-c2ccc(C(=O)[C@@H]3CCCC[C@H]3C(=O)Nc3cnn4c3C(=O)NCC4)cc2)[nH]n1"
assayvalue = "> 33 µM"


Next:
Reported IC50, compound `Cc1cc(-c2ccc(C(=O)[C@@H]3CCCC[C@H]3C(=O)Nc3cnn(C)c3S(N)(=O)=O)cc2)[nH]n1` : ____ > 33 µM

---

- assaySummary: Clearance in rat at 1 umol/kg, iv
- Type: ADME
- setupConditions: in vivo
experimentalReadout: clearance
State the result as a value with its unit after it.

[[record]]
smilesrepresentation = "Cc1cc(-c2ccc(C(=O)[C@@H]3CCCC[C@H]3C(=O)Nc3cnn(C)c3C(=O)NOC(C)(C)C)cc2)[nH]n1"
assayvalue = "1.2 mL/min/kg"


Let us move to another entry and its clearance.
Could you share which clearance value was measured for `Cc1cc(-c2ccc(C(=O)[C@@H]3CCCC[C@H]3C(=O)Nc3cnn4c3C(=O)NCC4)cc2)[nH]n1` ? 36 mL/min/kg

---

- assaySummary: Half life in rat at 2 umol/kg, iv
- Format: ADME
- setupConditions: in vivo
experimentalReadout: half-life (h)
Respond numerically; units are h and should not be typed.

Please look up its half-life: `Cc1cc(-c2ccc(C(=O)[C@@H]3CCCC[C@H]3C(=O)Nc3cnn(C)c3S(N)(=O)=O)cc2)[nH]n1` 2.9
